target: fMet-Leu-Phe receptor (Homo sapiens); assay: human FPR ligands by binding competition, primary screen, cell-based, FPRL1 counter-screen, flow cytometry (AID 440); details: FPR-expressing cells, fluorescent ligand binding, hits give high values, concentration not given here;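 further: 0% = buffer wells and 100% = receptor blocker peptide wells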
Among all 24,000 compounds or so, about 180 (0.75%) were called active. What follows is part of a selection rich in actives, with near analogues and random picks from the rest.
Form field: inhibition (one value per entry).

Please give measured inhibition of the following entry: O=C(CN1CCN(c2ncc(C(F)(F)F)cc2Cl)CC1)Nc1ccc2c(c1)OCO2
-4.3% (inactive)

Please give measured inhibition of the following entry: CCOC(=O)N1CCN(C(=O)C2CC(c3ccc(F)cc3)=NO2)CC1 (stereo not given)
9.4% (inactive)

Please give measured inhibition of the following entry: CCN(CC)S(=O)(=O)N1CCC(C(=O)NC(C)CCc2ccccc2)CC1 (stereo not given)
-9.4% (inactive)

Please give measured inhibition of the following entry: CCOc1ccc(/C(O)=C2/C(=O)C(=O)N(Cc3cccnc3)C2c2ccc(N(C)C)cc2)c(C)c1 (stereo not given)
27.7% (inactive)

Please give measured inhibition of the following entry: COc1ccc(OC)c(NC(=O)CCN2CCC(C)CC2)c1
-5.8% (inactive)
